- Target Or Test System: Voltage-gated potassium channel subunit beta-2 (Rattus norvegicus) (UniProt P62483)
- Sequence (P62483 whole entry, looked up): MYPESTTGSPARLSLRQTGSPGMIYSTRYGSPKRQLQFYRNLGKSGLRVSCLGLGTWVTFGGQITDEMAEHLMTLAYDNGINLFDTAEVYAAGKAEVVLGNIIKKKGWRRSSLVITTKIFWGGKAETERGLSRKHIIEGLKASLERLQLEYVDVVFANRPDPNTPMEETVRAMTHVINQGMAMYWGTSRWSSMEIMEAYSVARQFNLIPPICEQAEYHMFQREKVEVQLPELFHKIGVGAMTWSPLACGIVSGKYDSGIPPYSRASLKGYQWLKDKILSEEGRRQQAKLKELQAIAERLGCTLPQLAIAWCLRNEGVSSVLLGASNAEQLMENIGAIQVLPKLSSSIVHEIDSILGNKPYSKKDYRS
- Experiment Description: KvBeta enzyme negative modulators, primary screen, biochemical, NADPH fluorescence (AID 622);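 also: slope of raw intensity against log time taken from 70 to 1610 s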
- Condition Set: recombinant KvBeta, 4-cyanobenzaldehyde reduction, at 10 µM, active compounds read high
Test Readout: fluorescence slope

>>> reported("Cc1ccc2nsnc2c1S(=O)(=O)N(Cc1cc2cccc(C)c2[nH]c1=O)CC1CCCO1 (stereo not drawn)")
-0.578
>>> reported("CCCNC(=O)c1ccccc1NC(=O)CN(c1ccccc1OCC)S(C)(=O)=O")
-0.465
>>> reported("CCOc1ccc(S(=O)(=O)N(C)CCO)cc1-c1nc2c(C(C)(C)C)nn(C)c2c(=O)[nH]1")
-0.484
>>> reported("O=C1NC(Nc2ccccn2)(C(F)(F)F)C(=O)N1c1ccc(F)cc1 (stereo not drawn)")
-0.582
>>> reported("COc1ccc(S(=O)(=O)NC(C)C(=O)Nc2cccc(C(C)=O)c2)cc1 (stereo not drawn)")
-0.402
>>> reported("C=CCN1C(=O)C2(/C(=C(\\O)c3ccc4c(c3)OCCO4)C(=O)C(=O)N2CCCOC)c2ccccc21 (stereo not drawn)")
-0.465
>>> reported("Cc1noc(C)c1S(=O)(=O)N1CCCC(C(=O)NCCc2ccc(Cl)cc2)C1 (stereo not drawn)")
-0.471
>>> reported("O=C(NCc1ccco1)c1cnc2n(c1=O)CCS2")
-0.419
